Examples of compounds with documented IC50 follow.
SYSTEM: YKL-40 (Homo sapiens (Human), UniProt P36222)
Sequence (P36222 22-383): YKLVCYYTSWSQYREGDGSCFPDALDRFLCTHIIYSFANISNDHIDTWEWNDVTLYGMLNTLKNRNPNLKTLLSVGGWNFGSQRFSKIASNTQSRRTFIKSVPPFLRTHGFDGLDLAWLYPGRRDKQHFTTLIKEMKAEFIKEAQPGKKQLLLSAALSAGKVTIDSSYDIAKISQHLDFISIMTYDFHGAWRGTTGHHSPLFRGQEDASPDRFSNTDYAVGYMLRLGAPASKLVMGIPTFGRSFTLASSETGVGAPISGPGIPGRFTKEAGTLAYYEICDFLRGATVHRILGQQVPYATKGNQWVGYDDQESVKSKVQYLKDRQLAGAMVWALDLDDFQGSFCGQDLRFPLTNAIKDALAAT
PROTOCOL_NOTES: YKL-40:4 assay, competitive chitin binding site AlphaScreen
EXPERIMENTAL_PARAMETERS: competition with biotinylated compound 4 (20 nM), YKL-40-histag 2.5 nM
Where a name gives a salt, the structure may show the parent alone.

Look over these answered cases.
>>> reported_measurement("C[C@H]1CN(C2CCN(c3ncnc(N(C)C)n3)CC2)[C@@H](Cc2ccc(Cl)cc2)CO1 [compound 175, 2,2,2-trifluoroacetate]")
"> 100 µM"
>>> reported_measurement("Cc1cnc(N2CCC(N3C[C@H](C)OC[C@@H]3Cc3ccc(Cl)cc3)CC2)s1 [compound 185, 2,2,2-trifluoroacetate]")
"< 0.1 µM"
>>> reported_measurement("Cc1cccc(N2CCC(N3C[C@H](C)OC[C@@H]3Cc3ccc(Cl)cc3)CC2)n1 [compound 135, hydrochloride]")
"> 100 µM"
>>> reported_measurement("C[C@H]1CN(C2CCN(c3cc(F)ncn3)CC2)[C@@H](Cc2ccc(Cl)cc2)CO1 [Example 24, 2,2,2-trifluoroacetate]")
"> 100 µM"
>>> reported_measurement("C[C@H]1CN(C2CCN(c3cccc4nccn34)CC2)[C@@H](Cc2ccc(Cl)cc2)CO1 [compound 157, hydrochloride]")
"10 to 100 µM"
>>> reported_measurement("CN1C[C@H](Cc2ccc(Cl)cc2)N(C2CCN(c3cc(Cl)ccn3)CC2)C[C@@H]1Cn1ccnc1 [compound 82, hydrochloride]")
"< 0.1 µM"
>>> reported_measurement("C[C@H](O)[C@H]1CN(C2CCN(c3ccccn3)CC2)[C@@H](Cc2ccc(Cl)cc2)CN1C [compound 105, 2,2,2-trifluoroacetate]")
"< 0.1 µM"
>>> reported_measurement("Cc1csc(N2CCC(N3C[C@H](C)OC[C@@H]3Cc3ccc(Cl)cc3)CC2)n1 [compound 184, 2,2,2-trifluoroacetate]")
"1 to 10 µM"

Known value: YKL-40 (Homo sapiens (Human), UniProt P36222) IC50 of the compound COc1ccnc(N2CCC(N3C[C@H](C)OC[C@@H]3Cc3ccc(Cl)cc3)CC2)c1 [Example 29, 2,2,2-trifluoroacetate] equals 0.1 to 1 µM

IC50 on YKL-40 (Homo sapiens (Human), UniProt P36222) for C[C@H]1CN(C2CCN(c3cc(C(N)=O)ccn3)CC2)[C@@H](Cc2ccc(Cl)cc2)CO1 [compound 132, 2,2,2-trifluoroacetate] is > 100 µM

Form: item CO[C@H](C)CN1C[C@H](Cc2ccc(Cl)cc2)N(C2CCN(c3ccccn3)CC2)C[C@@H]1C [compound 107, 2,2,2-trifluoroacetate] ; test system YKL-40 (Homo sapiens (Human), UniProt P36222); IC50: 0.1 to 1 µM

Hey, YKL-40 (Homo sapiens (Human), UniProt P36222) data for C[C@H]1CN(C2CCN(c3ncccc3C(N)=O)CC2)[C@@H](Cc2ccc(Cl)cc2)CO1 [compound 114, 2,2,2-trifluoroacetate] : IC50 came out at > 100 µM

Item C[C@H]1CN(C2CCN(c3cccc(Cl)n3)CC2)[C@@H](Cc2ccc(Cl)cc2)CO1 [Example 14, 2,2,2-trifluoroacetate] was tested on YKL-40 (Homo sapiens (Human), UniProt P36222); the reported IC50 is 1 to 10 µM

* * *

SYSTEM: YKL-40 (Homo sapiens (Human))
PROTOCOL_NOTES: YKL-40:4 assay, competitive chitin binding site AlphaScreen
EXPERIMENTAL_PARAMETERS: competition with biotinylated compound 4 (20 nM), YKL-40-histag 2.5 nM
Structures can show the parent of a compound that is named as a salt.
RECORDED_ENDPOINT: IC50

Answered cases to consult:
>>> reported_measurement("C[C@H]1CN(c2ccc(-c3ccccn3)cc2)[C@@H](Cc2ccc(Cl)cc2)CO1 [compound 159, hydrochloride]")
"100 to 1000 nM"
>>> reported_measurement("C[C@H]1CN(C2CCN(c3ccccn3)CC2)[C@@H](Cc2ccc(Cl)cc2)CN1CC(=O)N(C)C [compound 101]")
"100 to 1000 nM"
>>> reported_measurement("O[C@H]1C[C@H]2CN(C3CCN(c4ncccn4)CC3)[C@@H](Cc3ccc(Cl)cc3)CN2C1 [Example 42]")
"100 to 1000 nM"

Please find the next compound below.
So, C[C@H]1CN(C2CCN(c3cccnc3)CC2)[C@@H](Cc2ccc(Cl)cc2)CO1 [Example 27, 2,2,2-trifluoroacetate] ? Its IC50 was > 100000 nM

* * *

SYSTEM: UniProt:P36222
PROTOCOL_NOTES: YKL-40:4 assay, competitive chitin binding site AlphaScreen
EXPERIMENTAL_PARAMETERS: competition with biotinylated compound 4 (20 nM), YKL-40-histag 2.5 nM
Counter-ions that a name gives are not always drawn.
RECORDED_ENDPOINT: IC50

Use these answered entries as a reference point.
>>> reported_measurement("C[C@H]1CN(C2CCN(c3c(F)cccc3F)CC2)[C@@H](Cc2ccc(Cl)cc2)CO1 [compound 123, 2,2,2-trifluoroacetate]")
"> 100 µM"
>>> reported_measurement("C[C@H]1CN(C2CCN(c3cc(C(=O)O)ccn3)CC2)[C@@H](Cc2ccc(Cl)cc2)CO1 [compound 125, 2,2,2-trifluoroacetate]")
"> 100 µM"
>>> reported_measurement("C[C@H]1CN(C2CCN(c3cc(Cl)ccc3C#N)CC2)[C@@H](Cc2ccc(Cl)cc2)CO1 [compound 115, 2,2,2-trifluoroacetate]")
"> 100 µM"
>>> reported_measurement("C[C@H]1CN(C2CCN(c3c(C(=O)O)ccnc3F)CC2)[C@@H](Cc2ccc(Cl)cc2)CO1")
"> 100 µM"

What the record says about COC(=O)c1ccnc(F)c1N1CCC(N2C[C@H](C)OC[C@@H]2Cc2ccc(Cl)cc2)CC1 : IC50 is > 100 µM

# compound COC(=O)c1ccnc(N2CCC(N3C[C@H](C)OC[C@@H]3Cc3ccc(Cl)cc3)CC2)c1F ; its IC50 = > 100 µM

IC50 in this record for CN1C[C@H](Cc2ccc(Cl)cc2)N(C2CCN(c3cc(Cl)ccn3)CC2)C[C@@H]1COc1ccc2ccccc2c1 [compound 84, 2,2,2-trifluoroacetate] : > 100 µM

The value of IC50 measured for the compound C[C@H]1CN(C2CCN(c3cncc(C(F)(F)F)n3)CC2)[C@@H](Cc2ccc(Cl)cc2)CO1 [compound 153, hydrochloride] turned out to be > 100 µM

Reported IC50 for C[C@H](O)CN1C[C@H](Cc2ccc(Cl)cc2)N(C2CCN(c3ccccn3)CC2)C[C@@H]1C [compound 104, 2,2,2-trifluoroacetate] was < 0.1 µM

Please fill in: IC50 reported for COC(C)(C)CN1C[C@H](Cc2ccc(Cl)cc2)N(C2CCN(c3ccccn3)CC2)C[C@@H]1CC(C)C [compound 100, 2,2,2-trifluoroacetate] = 1 to 10 µM

The reported IC50 of the compound CC1(O)CCN(C2CCN(c3ccccn3)CC2)[C@@H](Cc2ccc(Cl)cc2)C1 (stereo partly drawn) [compound 92, 2,2,2-trifluoroacetate] was < 0.1 µM

In plain terms, COC(=O)c1cccnc1N1CCC(N2C[C@H](C)OC[C@@H]2Cc2ccc(Cl)cc2)CC1 [compound 117, 2,2,2-trifluoroacetate] has a documented IC50 of > 100 µM

Per the records, this compound ( CN1C[C@H](Cc2ccc(Cl)cc2)N(C2CCN(c3cc(Cl)ccn3)CC2)C[C@@H]1CO ) has IC50 equal to < 0.1 µM

Looking up C[C@H]1CN(C2CCN(c3noc(C(F)(F)F)n3)CC2)[C@@H](Cc2ccc(Cl)cc2)CO1 [compound 164, 2,2,2-trifluoroacetate] , I found its IC50 recorded as > 100 µM

Notebook: CC(C)[C@H]1CN(C2CCN(c3ccccn3)CC2)[C@@H](Cc2ccc(Cl)cc2)CN1C [compound 62, 2,2,2-trifluoroacetate] , IC50 read as < 0.1 µM

These measurements were taken from patent US20230278996A1.
